System: Amaranthus retroflexus
Protocol notes: Post-emergence herbicidal efficacy at 320 g/ha, AMARE
Assay type: in vivo
Condition parameters: rated visually after about 3 weeks vs untreated controls, 100% = plants have died
Reported endpoint: Post-emergence efficacy at 320 g/ha against AMARE in % (%)
# value in %; strip the unit string

Below, 2 molecules whose answers are already recorded.
>>> observed_result("Fc1cccc(Nc2ncccn2)c1-c1cc(C(F)F)no1")
100
>>> observed_result("N#Cc1cccc(Nc2ncc(Cl)cc2F)c1-n1cc(C(F)(F)F)cn1")
100

# ---- query molecule ----
[in] Look up and state reported Post-emergence efficacy at 320 g/ha against AMARE in % for COCc1cnn(-c2c(C#N)cccc2Nc2ncc(F)cn2)c1
[out] 100

----------
System: Amaranthus retroflexus
Protocol notes: Post-emergence herbicidal efficacy at 320 g/ha, AMARE
Assay type: in vivo
Condition parameters: rated visually after about 3 weeks vs untreated controls, 100% = plants have died
Reported endpoint: Post-emergence efficacy at 320 g/ha against AMARE in %
# number then unit; no other words

>>> observed_result("Cc1cnc(Nc2cccc(F)c2-c2cc(C(F)F)no2)nc1")
"100%"
>>> observed_result("N#Cc1cccc(Nc2ncc(Cl)cn2)c1-c1ccc(F)c(F)c1")
"100%"
>>> observed_result("Fc1ccc(-c2ccccc2Nc2ncc(Cl)cn2)cc1F")
"100%"
>>> observed_result("Fc1cccc(Nc2ccc(Cl)cn2)c1-c1cc(C(F)F)no1")
"90%"
>>> observed_result("Fc1cnc(Nc2ccccc2CCCC(F)(F)F)nc1")
"90%"

[in] Please look at N#Cc1ccc(Nc2cccc(C#N)c2-n2cc(C(F)(F)F)cn2)nc1 and tell me its recorded Post-emergence efficacy at 320 g/ha against AMARE in % on Amaranthus retroflexus.
[out] 90%

[in] Please look at Cc1cnn(-c2c(C#N)cccc2Nc2ncc(F)cn2)c1 and tell me its recorded Post-emergence efficacy at 320 g/ha against AMARE in % on Amaranthus retroflexus.
[out] 100%

[in] Please look at N#Cc1cccc(Nc2ncc(F)cn2)c1-n1cc(C(F)(F)F)cn1 and tell me its recorded Post-emergence efficacy at 320 g/ha against AMARE in % on Amaranthus retroflexus.
[out] 100%

[in] Please look at Cc1cccc(Nc2ncc(F)cn2)c1-n1cc(C(F)(F)F)cn1 and tell me its recorded Post-emergence efficacy at 320 g/ha against AMARE in % on Amaranthus retroflexus.
[out] 90%

[in] Please look at N#Cc1cccc(Nc2ncc(Cl)cn2)c1-n1cccn1 and tell me its recorded Post-emergence efficacy at 320 g/ha against AMARE in % on Amaranthus retroflexus.
[out] 100%

----------
Test system: Amaranthus retroflexus
Protocol notes: Pre-emergence herbicide efficacy at 320 g/ha, AMARE
Assay type: in vivo
Condition parameters: scored visually after about 3 weeks vs untreated controls, 100% = plants have died
// reported Pre-emergence efficacy at 320 g/ha against AMARE in % per item
# number then unit; no other words

>>> observed_result("N#Cc1cc(Cl)cnc1Nc1cccc(C#N)c1-n1cc(C(F)(F)F)cn1")
"100%"

# ---- query molecule ----
[in] Look up and state reported Pre-emergence efficacy at 320 g/ha against AMARE in % for Fc1cnc(Nc2cccc(F)c2-n2cc(C(F)(F)F)cn2)nc1
[out] 100%
